Target: T1, Biotin PSGL-1(42-62) peptide, unmodified (human, C-terminal Lys-biotin)
T1 construct: Residues 42-62 followed by GGGK-biotin; also called WT; wild-type
T1 peptide: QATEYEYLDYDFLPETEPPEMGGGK
Experiment: ELISA, immobilized biotin peptide
pEC50: −log10 of the molar value.
reportedMetric: pEC50

binder: 16L15 (antibody, V domains shown, From mouse immunisation; only variable domains given) VH: DVKLVESGGGLVKLGGSLKLSCAASGFTFSSYYMSWVRQTPEKRLEWVATISNGGGSTYYPDSVKDRFTISRDNAKNTLYLQMSSLNSEDTAVYYCAKPLYYSNPWFAYWGQGTLVTVSA VL: DVLLTQTPLSLPVSLGDQASISCRSSQSIVHSNGNTYLEWYLQKPGQSPKLLIYKVSNRFSGVPDRFSGSGSGTDFTLKISRVEAEDLGVYYCFQGSHVPRTFGGGTKLEIK
result: 9.16
//
binder: 09A08 (antibody, IgG4, V domains shown) VH: QVQLVQSGAAVKKPGESLKISCKGSGYTFSNYWIGWVRQMPGKGLEWMGIIYPGDSDTRYSPSFQGQVTISADKSISTAYLQWSSLKASDTAMYYCARHIVGPPKSAFDIWGQGTMVTVSS VL: DIVMTQTPLSLPVTLGQPASISCSSSQGLQKRDGNTYLNWFQQRPGQSPRRLIYKVSNRDSGVPDRFSGSGSGTDFTLKISRVEAEDVGVYYCMQGTHWPWTFGQGTRVEIK
result: < 6.30

Note: attention shifts to another entry.
Task: Looking for the measured pEC50 of 05H03 (antibody, IgG4, V domains shown) VH: QVQLQQSGGGLVQPGGSLTLSCVGSGFDFRSYAMSWVRQAPGKGLEWVSGINNSGSKTYYADFVKGRFSVSRDNSKNIVWLRMRSLRAEDTAVYYCARRTFGPPHAWGQGTMVTVSS VL: DIVMTQSPLSLSVTPGEPASISCRSSQSLLHSNGYKYLDWYLQKPGQSPQLLIYMGSNRASGVPDRFSGSGSGTDFTLKISRVEAEDVGVYYCMQGLQSPLTFGGGTKVEIE , can you help?
Result: ~10.70

Values from patent US20220396632A1
